Listed below: switch fluorescence ratio values for each entry.
System: ATP;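 further: ATP exposure 15 min at 22 °C before imaging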
Test: switch fluorescence ratio, 500 uM ATP over buffer (Cy3 cluster intensity, sum of 5 cycles each) (fold (ratio)); higher = stronger signal-on switching upon ATP binding; sequences stand for … in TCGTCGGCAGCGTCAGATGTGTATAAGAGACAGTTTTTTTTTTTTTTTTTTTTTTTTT…TC
Details: aptamer strand: ATP DNA aptamer (quencher-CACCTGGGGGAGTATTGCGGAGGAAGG + anchor), 100 nM annealed; ATP concentration: 500 uM

Form: sequence = TGCTGGGTAT ; switch fluorescence ratio = 0.995

Form: sequence = ATAGGGCCGC ; switch fluorescence ratio = 1.02

Form: sequence = GGGAATGGGC ; switch fluorescence ratio = 0.991

Form: sequence = TGGTCGCAGC ; switch fluorescence ratio = 1.01

Form: sequence = TATTTCGGGA ; switch fluorescence ratio = 0.994

Form: sequence = TTAAGTGAAT ; switch fluorescence ratio = 0.979

Form: sequence = AGGCAATTTG ; switch fluorescence ratio = 1

Form: sequence = ATTGTGGATC ; switch fluorescence ratio = 1.03

Form: sequence = CAATGGTTCT ; switch fluorescence ratio = 0.993

Form: sequence = AGGATTTATA ; switch fluorescence ratio = 0.991

Form: sequence = TGCGACCATT ; switch fluorescence ratio = 1.03

Form: sequence = CATTATTTCA ; switch fluorescence ratio = 0.997

Form: sequence = CGCCTAGAGG ; switch fluorescence ratio = 1.02

Form: sequence = GTGGGATTT ; switch fluorescence ratio = 0.995

Form: sequence = AGCCATTAGC ; switch fluorescence ratio = 0.992

Form: sequence = TTATTCGGTG ; switch fluorescence ratio = 0.98

Form: sequence = TGGAACCGGA ; switch fluorescence ratio = 1.02

Form: sequence = TTTTCCTACG ; switch fluorescence ratio = 2.38

Form: sequence = AAGGTTAGTT ; switch fluorescence ratio = 1

Form: sequence = GTTGCAGGGG ; switch fluorescence ratio = 1.08

Form: sequence = AAGAGGATAG ; switch fluorescence ratio = 0.983

====

System: ATP;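 further: ATP exposure 15 min at 22 °C before imaging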
Experiment: switch fluorescence ratio, 500 uM ATP over buffer (Cy3 cluster intensity, sum of 5 cycles each) (fold (ratio)); higher = stronger signal-on switching upon ATP binding; sequences stand for … in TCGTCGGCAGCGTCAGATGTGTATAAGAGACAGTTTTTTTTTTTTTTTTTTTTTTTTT…TC
Conditions: aptamer strand: ATP DNA aptamer (quencher-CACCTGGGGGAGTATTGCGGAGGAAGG + anchor), 100 nM annealed; ATP concentration: 500 uM
observed-property: switch fluorescence ratio
The answer should be a number; do not append a unit.

Consider the reported switch fluorescence ratio for these sequences:
TGTTGGGCAG :: 0.963
GAGGCGGCAT :: 1.04
TTACGGGTAT :: 1.01
CCCTGTCATC :: 2.1
GAGGAATTTA :: 1.02

Form: sequence = AGGCGTGTCA ; switch fluorescence ratio = 1

Form: sequence = AGTAAATATA ; switch fluorescence ratio = 0.993

Form: sequence = TTGATGGGTG ; switch fluorescence ratio = 0.995

Form: sequence = TTCTTTATGG ; switch fluorescence ratio = 0.973

Form: sequence = AAATGGCCAT ; switch fluorescence ratio = 1.01

Form: sequence = CATAAGGTTT ; switch fluorescence ratio = 0.971
